# Test system: MS2 coat protein
# Procedure summary: apparent KD of MS2 coat protein, switch OFF state (with FMN for OFF switches, without FMN for ON switches); designed switch direction (-1 OFF switch, 1 ON switch): -1; higher = weaker reporter binding
# Settings: FMN input: 0 or 200 uM; Eterna round: R93 (includes R88 designs)
Measured apparent KD of MS2 coat protein accompanies every entry in the list below.
Unit nM implied. Number only.

Query string: Consider the sequence AAAAAACAUGAGGAUCACCCAUGUGAGGAUAUUGGUAUUAAAGACACCCACUUAAUGGCGAGAAGGCGCAAAAA [Brourd 613 Mod 19 - Jieux - Exclusion 1] and give its measured apparent KD of MS2 coat protein.
Result string: 27.5

Query string: Subsequent entry: AACUGACAUGAGGAUCACCCAUGUCAGGAUAUGCUUCAUAAAAAAAAAAAAAAAUGAUGCAGAAGGGACAUGGA [Design 29 :P Sub-opt 5]
Result string: 24.5

Query string: Entry to check: AAAAAAUCAGGAUAUACAUGAGGAUCACCCAUGUGAAAGAACGAUUAACGACCAGCAAGUAGAAGGGAUAAAAA [Ruby 81]
Result string: 19.7

====

Entries and their apparent KD of MS2 coat protein
# System: MS2 coat protein
# Procedure summary: apparent KD of MS2 coat protein; designed switch direction (-1 OFF switch, 1 ON switch): 1; higher = weaker reporter binding
# Settings: input ligand: microRNA oligo, concentration not stated

Worked cases, apparent KD of MS2 coat protein given:
sequence_chain="UCUGCAAGAACAGGAUAUGGGUUCAGAGCGCGAGUGCGCUUUGACACAUGAGGAUCACCCAUGUCCCAGAAGGGUUCAAGCGGC [Cexezadi] (Eterna round: R96, puzzle: Same State NG 2)" assayed_target="MS2 coat protein" assay_readout="apparent KD of MS2 coat protein" value_measured="0.321 µM"
sequence_chain="AUUUUUAAUGCAGGAUAUGAUUAACAUGAGGAUCACCCAUGUGGUGUUGUGAGUAAGGAGAGUGAUCAGAAGGGCAUCUUUUCA [SS-NG2-LRO02] (Eterna round: R96, puzzle: Same State NG 2)" assayed_target="MS2 coat protein" assay_readout="apparent KD of MS2 coat protein" value_measured="0.216 µM"
sequence_chain="GCCAUCGAGUGAGGAUAUGGCACCGAAACGGUGCCAGAAGGCAUGUCAAAAGACAUGAGGAUCACCCAUGUAUUAUCGAUGGCA [Mat - Same State NG 1 - JL mod - D88] (Eterna round: R96, puzzle: Same State NG 1)" assayed_target="MS2 coat protein" assay_readout="apparent KD of MS2 coat protein" value_measured="0.208 µM"

Query string: Form field: reported apparent KD of MS2 coat protein of UCGGGCGUACUUGCUGACAUGAGGAUCACCCAUGUGAUUGGGCAGGAUAUGGUUCCGUUUCGGUUCCAGAAGGUCCUCGGUGCU [salish99_SSNG3_r04_315] (Eterna round: R96, puzzle: Same State NG 3)
Result string: 0.23 µM

====

# Tested on: MS2 coat protein
# Procedure summary: apparent KD of MS2 coat protein; designed switch direction (-1 OFF switch, 1 ON switch): -1; higher = weaker reporter binding
# Settings: Eterna round: R95; input ligand: microRNA oligo, concentration not stated
Assign a class from recorded apparent KD of MS2 coat protein; defined classes: b0: < 30 nM; b1: ≥ 30 nM and < 100 nM; b2: ≥ 100 nM

Please review the following examples before continuing.
sequence_chain="UUUAAUUUUUUUUUUUUACAAGCUUUUUGCUCGUCUUAUACAUGAGGAUCACCCAUGUGGGUGAAAAGUAAAUUAUC [JMF 44] (puzzle: Sensor v3, turn-off variant 2)" cat=b0
sequence_chain="GACCGGACGUGGUCUGGUAACAUGAGGAUCACCCAUGUAGGUCUAAGAACAUGCCUUUUGCACGCUCGUCUUAUAUA [JR_SV3TOV1_Sub063] (puzzle: Sensor v3, turn-off variant 1)" cat=b1
sequence_chain="AUUUUAAUAUAGGAUAUCGAUUUUAUUAUUUAACGAGAAGGAUAAACAUGAGGAUCACCCAUGUGGUAUCAUGG [JMFs Solution 3] (puzzle: Exclusion 6)" cat=b2
sequence_chain="UUUUAGAGAGGAUAUAUAUUUUAAAACAUGAGGAUCACCCAUGUAAUUUUAUGGGAGUAAAUAGAAGGCUCAUUUA [JMFs Solution 3] (puzzle: Exclusion 5)" cat=b1
sequence_chain="CUUAGCCUAAAAUCACGCAAGCUUUUUACUUGUCUUAAGACAUGAGGAUCACCCAUGUCCGGGCUGAACUUAUGGAA [Zaortequ] (puzzle: Sensor v3, turn-off variant 2)" cat=b2
sequence_chain="GAAAAGUGAGGAUAUGGUAAAAGAAAAAGAAAAAAAAAACUCCAGAAGGCACAUGAGGAUCACCCAUGUAAAAG [salish99_ex4_r3_004] (puzzle: Exclusion 4)" cat=b0

Query string: Band assignment needed for UUUAAUUUUUUUUUUUUACAAGCUUUUUGCUCGUCUUAUACAUGAGGAUCACCCAUGUGGGUAAAGGAUAAAUUAUC [JMF 25] (puzzle: Sensor v3, turn-off variant 2) please.
Result string: b1

Query string: Also need GGUUGGCGAGGAUAUACAUGAGGAUCACCCAUGUGAGAGAAUAAAGUGAGGAAGAAAAGUAGAAGGCGCUGACG [salish99_ex3_r3_013] (puzzle: Exclusion 3) , thanks.
Result string: b1

Query string: How about AGUACUAACACGGGAGUGUUAGUACAAUAAGCUUGUGAAACAUGAGGAUCACCCAUGUCCUCAUAAGCUCGUCUUAU [salish99_TOv2_r3_060] (puzzle: Sensor v3, turn-off variant 2) ?
Result string: b2

Query string: Next entry: GUGGUACAUGAGGAUCACCCAUGUUAGGAUAUCGCGUGAGGUUUUACUUCCGCACACACGAGAAGGGACGUCUU (puzzle: Exclusion 1)
Result string: b0

Query string: Item: UUAUACGUUGAGGAUAUGCGAAUUAGUAUAGUUGCAGAAGGCGAUACAUGAGGAUCACCCAUGUUUAUGGGCAU [LRO-Ex6-06] (puzzle: Exclusion 6)
Result string: b2

Query string: Next sequence up: UAGAUGGGAGGAUAUGCAUAGAUACAGAUUCAUGUAGUGCUACAUGAGGAUCACCCAUGUAGAAGGCCCGUCUU [JL-ex2-2.20 Mayanne mod] (puzzle: Exclusion 2)
Result string: b0

Query string: # repeat for CAUACUCAAGUCAGGAUAUGCAGUCGAAUACGGGUGUAGAAGGGACAUGAGGAUCACCCAUGUAGAGAGUAAAG [EX-4 Malc #21] (puzzle: Brourd's mod of Exclusion 4)
Result string: b1

Query string: How about CAUUAAACGGAGGAUAUCCUAUAUAUAAUAAUAGGAGAAGGUCGUACAUGAGGAUCACCCAUGUGUGGACAUGG [something] (puzzle: Exclusion 6) ?
Result string: b2

Query string: Another sequence: GGAAUACAUGAGGAUCACCCAUGUAAGGAUAUGCUGAUUAAUUAAUUAUAAUUAUGCAGCAGAAGGUACAAAGG [Mat - Mod of my Eli Mod D50] (puzzle: Exclusion 1)
Result string: b1

Query string: Now give it for UUUAAGGAAGGAUAUACAAUAUAAAUAAUAUCCUCAUUAUUACAUGAGGAUCACCCAUGUAGAAGGUCCAAUUU [Mat - Exclusion 2 - Mod of Hog - D89] (puzzle: Exclusion 2) too.
Result string: b2

Query string: Check ACAACAAGCUUUUUGAACGUAGAACAUGCAGCUCUAGUCACAUGAGGAUCACCCAUGUCAGCCAGUUAGAUAGGUGA [JR_SV3TOV2_Sub066] (puzzle: Sensor v3, turn-off variant 2) too.
Result string: b2

Query string: Now the sequence GCACGGUAAGUGAGGAUAUACCUCUGGAUACAGAGGUAGAAGGCACAUGAGGAUCACCCAUGUUCCAGCCGUGC [Fiskers BMX 4 - 86] (puzzle: Brourd's mod of Exclusion 4)
Result string: b0

Query string: Likewise for AAUUUACAUGAGGAUCACCCAUGUCAGGAUAUGGUUUUAUUUUUUUUUUUUUUUUAUUCCAGAAGGGACAGUUA (puzzle: Exclusion 1) ?
Result string: b0

Query string: Same question, GGUGCGUAUGUGAGGAUAUGCUGGUCCUUGGAUCAGCAGAAGGCACAUGAGGAUCACCCAUGUGGUGUCGUACG [salish99_Bmod_Ex4_012] (puzzle: Brourd's mod of Exclusion 4) this time
Result string: b1

Query string: Now the same for GAGCUAUGAGGAUAUGCAUAUAUACGGAUUCGUGUGGUACUACAUGAGGAUCACCCAUGUAGAAGGCGUGGCUG [JL-ex2-2.04 mat747 mod] (puzzle: Exclusion 2)
Result string: b0

====

# Test system: MS2 coat protein
# Procedure summary: apparent KD of MS2 coat protein; designed switch direction (-1 OFF switch, 1 ON switch): -1; higher = weaker reporter binding
# Settings: input ligand: FMN 200 uM
Answer not fulfilled if apparent KD of MS2 coat protein is under 80 nM, and fulfilled if it is 80 nM or more.

Worked examples follow.
sequence_chain="GGCACACAUGAGGAUCACCCAUGUGAGGAUAUGUGGCGAUCGUCGAUAGACGAUAGCCACAGAAGGCACAUGCC [Mat - Exclusion 1 - Eli Mod - D9] (Eterna round: R97, puzzle: Exclusion 1)" assayed_target="MS2 coat protein" cat="not fulfilled"
sequence_chain="CGAUAAAAGUGAGGAUAUGAGGAGAGAGAGAGAUCAGAAGGCACACAUGAGGAUCACCCAUGUGAGUUCUCGAAAUUAAAUAUU [Prohibition 49 - Jieux - Exclusion NG 1] (Eterna round: R96, puzzle: Exclusion NG 1)" assayed_target="MS2 coat protein" cat="not fulfilled"
sequence_chain="ACAUGAGGAUCACCCAUGUUUUUCGGGUACUCUUGAUACAGCAAGGAUAUGCAUUAUUUAUGUACGCAGAAGGUGCAUUACGUC [JR_ExcNG3_Sub064] (Eterna round: R96, puzzle: Exclusion NG 3)" assayed_target="MS2 coat protein" cat=fulfilled

Then this sequence:
Query string: Given the entry CUGUACUGAGGAUAUACAUGAGGAUCACCCAUGUUCCAAGGCUAGGAAACUAGCAAAGGUAGAAGGCAGUACAG [Mat - Exclusion 3 - Eli Mod - D67] (Eterna round: R97, puzzle: Exclusion 3) , answer whether its apparent KD of MS2 coat protein meets or surpasses 80 nM.
Result string: fulfilled
